- System: cancer cell lines from the cancer cell line encyclopedia (CCLE)
- runDescription: Cell line profiling (CLiP) proliferation experiment
- Type: cell-based
- setupConditions: Ri-1, RI-1 cells; read-out: Inflection Point
measurementName: EC50 (µM)
Give the number; µM is assumed, so skip it.

Entry `CC(C)[C@@]12C[C@@H](O)[C@@](C)(O1)[C@@H]1CC[C@@H](C)[C@H]1[C@@H]2OC(=O)/C=C/c1ccccc1` — recorded EC50 = 9.99

---

- Test system: cancer cell lines from the cancer cell line encyclopedia (CCLE)
- runDescription: Cell line profiling (CLiP) proliferation experiment
- Type: cell-based
- setupConditions: cell line HARA (lung, squamous_cell_carcinoma); read-out: Crossing Point
measurementName: IC50

Entry CC(C)[C@@]12C[C@@H](O)[C@@](C)(O1)[C@@H]1CC[C@@H](C)[C@H]1[C@@H]2OC(=O)/C=C/c1ccccc1 [Englerin B] — recorded IC50 = 15.9 µM
